In this section we review reported pEC50 values for a set of binders.
Biological target: T1, human LIV-1 (human, UniProt Q13433 29-755)
T1 construct: whole, on cells; also called H-LIV1
T1 sequence (looked up): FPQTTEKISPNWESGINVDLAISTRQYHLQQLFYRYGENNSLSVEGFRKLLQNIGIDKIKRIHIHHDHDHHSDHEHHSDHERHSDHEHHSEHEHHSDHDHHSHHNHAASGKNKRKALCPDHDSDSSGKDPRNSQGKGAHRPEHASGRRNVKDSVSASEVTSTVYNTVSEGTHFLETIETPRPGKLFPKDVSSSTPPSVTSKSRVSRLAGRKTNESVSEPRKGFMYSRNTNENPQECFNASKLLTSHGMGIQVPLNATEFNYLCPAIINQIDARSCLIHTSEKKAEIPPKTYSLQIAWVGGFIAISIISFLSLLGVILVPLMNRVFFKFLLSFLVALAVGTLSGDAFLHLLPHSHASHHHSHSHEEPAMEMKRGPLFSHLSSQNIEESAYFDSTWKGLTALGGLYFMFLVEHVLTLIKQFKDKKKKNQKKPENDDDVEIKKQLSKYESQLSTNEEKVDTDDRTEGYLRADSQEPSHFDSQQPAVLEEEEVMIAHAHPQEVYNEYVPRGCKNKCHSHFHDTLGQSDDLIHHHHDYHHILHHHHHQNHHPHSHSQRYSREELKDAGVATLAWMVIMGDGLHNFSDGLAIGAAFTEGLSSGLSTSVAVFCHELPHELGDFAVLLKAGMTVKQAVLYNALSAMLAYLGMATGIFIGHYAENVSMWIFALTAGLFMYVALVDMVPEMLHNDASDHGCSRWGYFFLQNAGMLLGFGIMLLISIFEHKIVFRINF
Test: FACS, HEK293/H_LIV-1 cells
pEC50: −log10 of the molar value.

binder	pEC50
59C12C8 (antibody, V domains shown, Tested as chimeric antibody) VH: EVQLQQSGAELVRSGASVKLSCTASDFNIEDYYIHWVKQRPEQGLEWIGWIDPENGDTEYAPKFQGKATMTADTSSNTAYLQLSSLTSEDTAVYYCPHGGGFRVFDYWGQGTTLTVSS VL: DVLMTQTPLSLPVSLGDQASISCRSSQRIVHSNGNTYLEWYLQKPGQSPKLLIYKVSNRFSGVPDRFSGSGSGTDFTLKISRVEAEDLGVYYCFQGSHVPWTFGGGTKLEIK	10.00
282G5A2 (antibody, V domains shown, Tested as chimeric antibody) VH: QVQLQQSGAELVRPGTSVKVSCKASGYALTKYLIEWIKQRPGQGLEWIGVINPGNAGNNYNEKFKGKATLTVDQSSSTAYMQLSSLTSEDSAVYFCARRGRDYAMDNWGQGTSVTVSS VL: EIVLTQSPAIMSASLGEKVTMSCRASSSINYIYWYQQKSDASPKLWIYYTSNLAPGVPARFSGSGSGNSYSLTISSMEDEDAATYYCQQFTSSPLTFGAGTKLELK	8.95
